experimental.system: Aminopeptidase N (Plasmodium falciparum (isolate 3D7)) (UniProt O96935)
Sequence (O96935 whole entry, looked up): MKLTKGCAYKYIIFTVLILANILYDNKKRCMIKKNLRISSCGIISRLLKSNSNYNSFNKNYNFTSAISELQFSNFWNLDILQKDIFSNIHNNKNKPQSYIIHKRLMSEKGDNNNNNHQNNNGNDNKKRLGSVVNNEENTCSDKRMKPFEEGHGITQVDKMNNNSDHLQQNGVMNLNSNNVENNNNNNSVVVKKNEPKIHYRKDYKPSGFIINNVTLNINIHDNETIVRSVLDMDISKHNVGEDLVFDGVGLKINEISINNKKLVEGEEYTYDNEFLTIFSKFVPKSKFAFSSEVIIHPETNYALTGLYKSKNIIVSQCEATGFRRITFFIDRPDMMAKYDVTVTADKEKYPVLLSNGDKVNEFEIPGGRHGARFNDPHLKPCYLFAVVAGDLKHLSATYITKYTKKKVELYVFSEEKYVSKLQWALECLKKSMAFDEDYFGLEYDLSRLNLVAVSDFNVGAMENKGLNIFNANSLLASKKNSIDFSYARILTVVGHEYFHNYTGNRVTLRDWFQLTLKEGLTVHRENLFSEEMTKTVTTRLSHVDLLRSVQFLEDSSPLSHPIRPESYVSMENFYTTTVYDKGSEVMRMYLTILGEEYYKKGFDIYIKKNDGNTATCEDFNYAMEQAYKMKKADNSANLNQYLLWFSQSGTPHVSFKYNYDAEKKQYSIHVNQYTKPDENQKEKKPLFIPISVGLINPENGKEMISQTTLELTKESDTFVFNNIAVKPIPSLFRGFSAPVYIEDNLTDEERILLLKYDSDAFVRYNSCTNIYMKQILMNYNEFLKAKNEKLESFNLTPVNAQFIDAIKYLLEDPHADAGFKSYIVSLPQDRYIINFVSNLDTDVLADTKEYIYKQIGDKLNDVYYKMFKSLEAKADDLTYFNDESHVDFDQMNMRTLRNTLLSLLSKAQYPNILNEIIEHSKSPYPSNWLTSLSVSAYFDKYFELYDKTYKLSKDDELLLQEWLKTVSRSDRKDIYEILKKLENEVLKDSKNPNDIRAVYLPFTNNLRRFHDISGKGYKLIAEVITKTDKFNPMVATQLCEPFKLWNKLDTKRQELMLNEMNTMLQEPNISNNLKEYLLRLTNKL
method: malaria alanyl aminopeptidase activity blockers – biochemical, fluorogenic H-Leu-NHMec substrate, 1536-well (AID 1445)
measurement.parameters: recombinant M1AAP, H-Leu-NHMec fluorogenic kinetic assay; at 30 µM
About 910 (0.41%) of roughly 220,000 compounds were called active.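 The calls were made as follows: active = primary inhibition above the hit cutoff, then over 50% inhibition at one or more dose response concentrations (cut at about 23% in these data, passing the limit was not always enough); inconclusive = conflicting primary data, or primary hits not chosen for dose response; inactive = low primary inhibition, or under 50% at every dose.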 The list comes from a sample in which actives are over-represented; it also holds close analogues and randomly drawn compounds. Potency and affinity values are given separately.
Outcome codes: yes = active, no = inactive

[
  {
    "compound": "CCSc1ncc(Cl)c(C(=O)Nc2ccccc2)n1",
    "experimental.system": "Aminopeptidase N (Plasmodium falciparum (isolate 3D7)) (UniProt O96935)",
    "discrete.label": "no"
  },
  {
    "compound": "COc1cc(C(=S)N2CCOCC2)cc(OC)c1OC(=O)Cc1ccc(F)cc1",
    "experimental.system": "Aminopeptidase N (Plasmodium falciparum (isolate 3D7)) (UniProt O96935)",
    "discrete.label": "no"
  },
  {
    "compound": "Cc1cccc(CSc2ncccc2C(=O)O)c1",
    "experimental.system": "Aminopeptidase N (Plasmodium falciparum (isolate 3D7)) (UniProt O96935)",
    "discrete.label": "no"
  },
  {
    "compound": "CCCOc1ccc(C2c3c(oc4ccccc4c3=O)C(=O)N2CCCN2CCOCC2)cc1 (stereo not drawn)",
    "experimental.system": "Aminopeptidase N (Plasmodium falciparum (isolate 3D7)) (UniProt O96935)",
    "discrete.label": "no"
  },
  {
    "compound": "Cc1ccc(C)c2[nH]c(=O)c(C(c3nnnn3Cc3ccco3)N3CCc4ccccc4C3)cc12 (stereo not drawn)",
    "experimental.system": "Aminopeptidase N (Plasmodium falciparum (isolate 3D7)) (UniProt O96935)",
    "discrete.label": "yes"
  },
  {
    "compound": "Cc1ccc(NC(=O)CSc2nnc(-c3ccco3)c(-c3ccco3)n2)cc1",
    "experimental.system": "Aminopeptidase N (Plasmodium falciparum (isolate 3D7)) (UniProt O96935)",
    "discrete.label": "yes"
  },
  {
    "compound": "COc1ccc2[nH]c(=O)c(CN(C3CCCCC3)C(c3nnnn3Cc3ccco3)C(C)C)cc2c1 (stereo not drawn)",
    "experimental.system": "Aminopeptidase N (Plasmodium falciparum (isolate 3D7)) (UniProt O96935)",
    "discrete.label": "yes"
  },
  {
    "compound": "CCC(=O)Nc1ccc(-n2nnnc2SCC(=O)NNC(=O)c2ccco2)cc1",
    "experimental.system": "Aminopeptidase N (Plasmodium falciparum (isolate 3D7)) (UniProt O96935)",
    "discrete.label": "no"
  },
  {
    "compound": "COc1ccc2[nH]c(=O)c(CN(Cc3nnnn3Cc3ccco3)C3CCCCC3)cc2c1",
    "experimental.system": "Aminopeptidase N (Plasmodium falciparum (isolate 3D7)) (UniProt O96935)",
    "discrete.label": "no"
  },
  {
    "compound": "O=C(Cn1cc(C(F)(F)F)cc(Cl)c1=O)Nc1cc(S(=O)(=O)N2CCOCC2)ccc1Cl",
    "experimental.system": "Aminopeptidase N (Plasmodium falciparum (isolate 3D7)) (UniProt O96935)",
    "discrete.label": "no"
  },
  {
    "compound": "O=C1c2oc3ccc(F)cc3c(=O)c2C(c2cccc(O)c2)N1CCCN1CCOCC1 (stereo not drawn)",
    "experimental.system": "Aminopeptidase N (Plasmodium falciparum (isolate 3D7)) (UniProt O96935)",
    "discrete.label": "no"
  },
  {
    "compound": "Cc1cc2cc(C(c3nnnn3Cc3ccco3)N3CCc4ccccc43)c(=O)[nH]c2cc1C (stereo not drawn)",
    "experimental.system": "Aminopeptidase N (Plasmodium falciparum (isolate 3D7)) (UniProt O96935)",
    "discrete.label": "no"
  },
  {
    "compound": "Cc1cccc(-c2nc3ccccc3c(=O)n2NC(=O)c2cccnc2Cl)c1",
    "experimental.system": "Aminopeptidase N (Plasmodium falciparum (isolate 3D7)) (UniProt O96935)",
    "discrete.label": "no"
  },
  {
    "compound": "Cc1cc(C(F)(F)F)nc(Nc2nc(C)c3ccccc3n2)n1",
    "experimental.system": "Aminopeptidase N (Plasmodium falciparum (isolate 3D7)) (UniProt O96935)",
    "discrete.label": "no"
  },
  {
    "compound": "Cc1cccc2cc(C(c3nnnn3CC3CCCO3)N3CCc4ccccc4C3)c(=O)[nH]c12 (stereo not drawn)",
    "experimental.system": "Aminopeptidase N (Plasmodium falciparum (isolate 3D7)) (UniProt O96935)",
    "discrete.label": "no"
  },
  {
    "compound": "O=C(N1CCOCC1)N1CCC(NC(=O)C23CC4CC(CC(C4)C2)C3)CC1",
    "experimental.system": "Aminopeptidase N (Plasmodium falciparum (isolate 3D7)) (UniProt O96935)",
    "discrete.label": "no"
  },
  {
    "compound": "Cc1cccc(C)c1NC(=O)CSc1nnc(-c2ccco2)c(-c2ccco2)n1",
    "experimental.system": "Aminopeptidase N (Plasmodium falciparum (isolate 3D7)) (UniProt O96935)",
    "discrete.label": "no"
  },
  {
    "compound": "CCOc1ccc(C2c3c(oc4ccccc4c3=O)C(=O)N2CCCN2CCOCC2)cc1 (stereo not drawn)",
    "experimental.system": "Aminopeptidase N (Plasmodium falciparum (isolate 3D7)) (UniProt O96935)",
    "discrete.label": "no"
  },
  {
    "compound": "COc1cccc(OC)c1C(=O)Nn1c(-c2cccs2)nc2ccccc2c1=O",
    "experimental.system": "Aminopeptidase N (Plasmodium falciparum (isolate 3D7)) (UniProt O96935)",
    "discrete.label": "no"
  },
  {
    "compound": "CC(=O)c1cccc(NC(=O)N2CCCC2C(=O)Nc2cccc(C)c2)c1 (stereo not drawn)",
    "experimental.system": "Aminopeptidase N (Plasmodium falciparum (isolate 3D7)) (UniProt O96935)",
    "discrete.label": "no"
  },
  {
    "compound": "NC(CC(=O)O)c1ccc(F)cc1 (stereo not drawn)",
    "experimental.system": "Aminopeptidase N (Plasmodium falciparum (isolate 3D7)) (UniProt O96935)",
    "discrete.label": "no"
  },
  {
    "compound": "COc1ccc(C2C(C(=O)OCC(=O)Nc3ccc(C)cc3)CCC(=O)N2c2ccc(OC)cc2)cc1 (stereo not drawn)",
    "experimental.system": "Aminopeptidase N (Plasmodium falciparum (isolate 3D7)) (UniProt O96935)",
    "discrete.label": "yes"
  },
  {
    "compound": "Cc1cccc(NC(=O)N2CCCC2C(=O)Nc2ccccc2)c1 (stereo not drawn)",
    "experimental.system": "Aminopeptidase N (Plasmodium falciparum (isolate 3D7)) (UniProt O96935)",
    "discrete.label": "no"
  },
  {
    "compound": "COc1ccc(C(=O)ON=C2CCN(c3ccc([N+](=O)[O-])cc3)CC2)cc1",
    "experimental.system": "Aminopeptidase N (Plasmodium falciparum (isolate 3D7)) (UniProt O96935)",
    "discrete.label": "no"
  },
  {
    "compound": "CCNC(=O)COC(=O)C1CCC(=O)N(c2ccc(OC)cc2)C1c1ccc(OC)cc1 (stereo not drawn)",
    "experimental.system": "Aminopeptidase N (Plasmodium falciparum (isolate 3D7)) (UniProt O96935)",
    "discrete.label": "no"
  },
  {
    "compound": "Cc1cc2cc(C(c3nnnn3Cc3ccco3)N3CCc4ccccc4C3)c(=O)[nH]c2cc1C (stereo not drawn)",
    "experimental.system": "Aminopeptidase N (Plasmodium falciparum (isolate 3D7)) (UniProt O96935)",
    "discrete.label": "no"
  },
  {
    "compound": "O=C(NCc1ccccc1)C1=C[C@H](c2coc3ccccc3c2=O)C[C@H](OCCCCO)O1",
    "experimental.system": "Aminopeptidase N (Plasmodium falciparum (isolate 3D7)) (UniProt O96935)",
    "discrete.label": "no"
  },
  {
    "compound": "COc1ccc(C2C(C(=O)OCC(=O)N3CCCCC3)CCC(=O)N2c2ccc(OC)cc2)cc1 (stereo not drawn)",
    "experimental.system": "Aminopeptidase N (Plasmodium falciparum (isolate 3D7)) (UniProt O96935)",
    "discrete.label": "no"
  },
  {
    "compound": "COC(=O)CC(N)c1ccc(Br)cc1 (stereo not drawn)",
    "experimental.system": "Aminopeptidase N (Plasmodium falciparum (isolate 3D7)) (UniProt O96935)",
    "discrete.label": "no"
  },
  {
    "compound": "Cc1ccc(CSc2ncccc2C(=O)O)cc1",
    "experimental.system": "Aminopeptidase N (Plasmodium falciparum (isolate 3D7)) (UniProt O96935)",
    "discrete.label": "no"
  },
  {
    "compound": "COc1cccc(OC)c1C(=O)Nn1c(-c2cccc(C)c2)nc2ccccc2c1=O",
    "experimental.system": "Aminopeptidase N (Plasmodium falciparum (isolate 3D7)) (UniProt O96935)",
    "discrete.label": "no"
  },
  {
    "compound": "CC(=O)Nc1cccc(NC(=O)C2CCCN2C(=O)Nc2ccccc2C)c1 (stereo not drawn)",
    "experimental.system": "Aminopeptidase N (Plasmodium falciparum (isolate 3D7)) (UniProt O96935)",
    "discrete.label": "no"
  },
  {
    "compound": "Cc1onc(-c2ccccc2Cl)c1C(=O)Nc1ccc(-c2cn3cccnc3n2)cc1",
    "experimental.system": "Aminopeptidase N (Plasmodium falciparum (isolate 3D7)) (UniProt O96935)",
    "discrete.label": "no"
  },
  {
    "compound": "O=C(O)c1ccc2c(c1)C1C=CCC1C(c1ccncc1)N2 (stereo not drawn)",
    "experimental.system": "Aminopeptidase N (Plasmodium falciparum (isolate 3D7)) (UniProt O96935)",
    "discrete.label": "no"
  },
  {
    "compound": "O=C(NCc1ccc2c(c1)OCO2)C1CCCN1C(=O)Nc1ccc(F)cc1 (stereo not drawn)",
    "experimental.system": "Aminopeptidase N (Plasmodium falciparum (isolate 3D7)) (UniProt O96935)",
    "discrete.label": "no"
  },
  {
    "compound": "O=C1NC(=S)N/C1=C\\c1cccc([N+](=O)[O-])c1",
    "experimental.system": "Aminopeptidase N (Plasmodium falciparum (isolate 3D7)) (UniProt O96935)",
    "discrete.label": "no"
  },
  {
    "compound": "O=C(NCc1ccc2c(c1)OCO2)C1CCCN1C(=O)Nc1ccccc1 (stereo not drawn)",
    "experimental.system": "Aminopeptidase N (Plasmodium falciparum (isolate 3D7)) (UniProt O96935)",
    "discrete.label": "no"
  },
  {
    "compound": "COc1ccccc1C(=O)Nn1c(-c2cccs2)nc2ccccc2c1=O",
    "experimental.system": "Aminopeptidase N (Plasmodium falciparum (isolate 3D7)) (UniProt O96935)",
    "discrete.label": "no"
  },
  {
    "compound": "CC1(C)N=C(N)N=C(N)N1c1ccc(OCCCOc2ccccc2)c(Cl)c1",
    "experimental.system": "Aminopeptidase N (Plasmodium falciparum (isolate 3D7)) (UniProt O96935)",
    "discrete.label": "no"
  },
  {
    "compound": "CSc1ncc(Cl)c(C(=O)Nc2nnc(SC)s2)n1",
    "experimental.system": "Aminopeptidase N (Plasmodium falciparum (isolate 3D7)) (UniProt O96935)",
    "discrete.label": "no"
  },
  {
    "compound": "Fc1ccc2c(c1)C1C=CCC1C(c1cc3c(cc1Br)OCO3)N2 (stereo not drawn)",
    "experimental.system": "Aminopeptidase N (Plasmodium falciparum (isolate 3D7)) (UniProt O96935)",
    "discrete.label": "no"
  },
  {
    "compound": "CCOC(=O)c1ccc(-n2c(C)nc3ccccc3c2=O)cc1",
    "experimental.system": "Aminopeptidase N (Plasmodium falciparum (isolate 3D7)) (UniProt O96935)",
    "discrete.label": "no"
  },
  {
    "compound": "CC1CCCCC1NC(=O)C(=O)NCC1CCCO1 (stereo not drawn)",
    "experimental.system": "Aminopeptidase N (Plasmodium falciparum (isolate 3D7)) (UniProt O96935)",
    "discrete.label": "no"
  }
]
